Values compiled from the METLIN SMRT retention time set (Domingo-Almenara et al. 2019).

Assay: gradient 5% acetonitrile 3 min, to 50% in 2 min, to 85% in 15 min, held 3 min, 100 µL/min
Conditions: column: Zorbax Extend-C18 2.1 x 50 mm; eluents: water / acetonitrile, 0.1% formic acid
quantity.name: RP-LC retention time (s)

# count of solved cases: 5
>  <compound>
Cc1ccc(F)cc1NC(=O)Cn1nc(N2CCC(C)CC2)c2ccccc2c1=O

>  <units.of.measure>
s

>  <RP-LC retention time>
1180

$$$$
>  <compound>
O=C(Cn1ncc2c(N3CCN(c4ccccn4)CC3)ncnc21)Nc1cccc(Cl)c1

>  <units.of.measure>
s

>  <RP-LC retention time>
638

$$$$
>  <compound>
O=C(C1=CN(c2ccc(Cl)c(Cl)c2)c2cc(F)ccc2S1(=O)=O)N1CCOCC1

>  <units.of.measure>
s

>  <RP-LC retention time>
882

$$$$
>  <compound>
CCn1c(=O)c2ccn(CC(=O)N3CCN(Cc4ccc5c(c4)OCO5)CC3)c2n(CC)c1=O

>  <units.of.measure>
s

>  <RP-LC retention time>
591

$$$$
>  <compound>
Cc1ccc(S(=O)(=O)n2nc(-c3cccc(C)c3)nc2N)cc1

>  <units.of.measure>
s

>  <RP-LC retention time>
957

$$$$

[A] Cc1ccc(CNC(=O)CN2CCN(C(=O)Nc3ccc(Br)cc3)CC2=O)o1
[B] O=C(Nc1ccccc1Cl)N(CCc1cccs1)C1CC1
Returns: the argument ( A or B ) having the larger RP-LC retention time. # respond with the chosen item's label
B
(B: 1120 s, A: 748 s)
